molecular target: Aedes aegypti mevalonate kinase (AaMVK) (Aedes aegypti, UniProt Q176C1); construct: recombinant His-tagged full-length AaMVK (397 aa) expressed in E. coli; test: PK/LDH-coupled spectrophotometric kinase assay, Ki from varied ATP and inhibitor
Sequence (Q176C1 1-397): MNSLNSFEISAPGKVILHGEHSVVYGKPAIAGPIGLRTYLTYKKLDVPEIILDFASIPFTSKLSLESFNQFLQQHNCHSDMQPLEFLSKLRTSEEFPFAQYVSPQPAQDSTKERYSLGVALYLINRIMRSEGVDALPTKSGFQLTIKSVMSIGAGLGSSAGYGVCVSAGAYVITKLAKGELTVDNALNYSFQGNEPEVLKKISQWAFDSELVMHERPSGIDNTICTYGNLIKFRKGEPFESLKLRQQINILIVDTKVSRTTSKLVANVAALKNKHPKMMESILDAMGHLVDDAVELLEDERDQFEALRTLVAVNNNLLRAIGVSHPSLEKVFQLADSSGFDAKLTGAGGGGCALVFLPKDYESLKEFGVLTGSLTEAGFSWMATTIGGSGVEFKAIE
pKi: −log10 of the molar value.

compound | measured_on | pKi
CC(C)=CCC/C(C)=C/COP(=O)(O)OP(=O)(O)O [GPP, geranyl diphosphate] | Aedes aegypti mevalonate kinase (AaMVK) (Aedes aegypti, UniProt Q176C1) | 6.26
CC(C)=CCC/C(C)=C/CC/C(C)=C/CO[P@@](=O)(O)OP(=O)(O)O (stereo in doubt) [FPP, farnesyl diphosphate] | Aedes aegypti mevalonate kinase (AaMVK) (Aedes aegypti, UniProt Q176C1) | 6.36
CC(C)=CCC/C(C)=C/CC/C(C)=C/CC/C(C)=C/COP(=O)(O)OP(=O)(O)O [GGPP, geranyl-geranyl pyrophosphate] | Aedes aegypti mevalonate kinase (AaMVK) (Aedes aegypti, UniProt Q176C1) | 6.03
